- Test system: NCI-H23 lung
- experimental details: NCI-60 one-dose screen, 48 h (100 = growth as untreated, 0 = no growth, -100 = all killed)
- study conditions: 10 µM unless noted
This is part of a sample that, as a whole, favours compounds with a hit. Of some 83,000 tested, about 20% had one in any assay.
Lab note: anything with growth below 40% is marked label 1; values at 40% or higher are marked label 0.

> print(dat)
                                    molecule  class.label
 1    O=c1[nH]c2ccccc2cc1-c1nnc(Cc2ccccc2)o1      label 0
 2  CC(=O)Nc1ccc(S(=O)(=O)N2C(=O)CCC2C(=O)Nc2ccccc2)cc1 (stereo not given)      label 1
 3         CCC(C)NCC(=O)O (stereo not given)      label 0
 4  O=S(=O)(NCCCNc1cc(-c2cn(-c3ccccc3)nc2-c2cccc(O)c2)ccn1)c1cccc(F)c1      label 0
 5  COc1cc(-c2csc(NC(=O)Nc3ccc(Cl)cc3Cl)n2)cc(OC)c1OC      label 0
 6  O=C(Nc1ccc(Cl)cc1)c1cc(-c2ccc(F)cc2)c2sc(=O)[nH]c2n1      label 1
 7  NC(CC(N)C(=O)O)C(=O)O (stereo not given)      label 0
 8  CCN1C(=O)N(CC)C2C1NN=c1s/c(=C3\C(=O)N(C4CCCC4)c4ccccc43)c(=O)n12 (stereo not given)      label 1
 9  O=C(CCCn1c2c(sc3ccccc32)c(=O)n2nnc(-c3ccccc3)c12)NCCc1cnc[nH]1      label 1
10  COc1ccc(Cn2c(SC)nc(=O)n(Cc3ccc(Cl)cc3)c2=O)cc1      label 0

###

- Test system: LOX IMVI melanoma
- experimental details: NCI-60 one-dose screen, 48 h
- study conditions: 10 µM unless noted
This is part of a sample that, as a whole, favours compounds with a hit. Of some 83,000 tested, about 20% had one in any assay. Active and inactive are the calls of the source. Rule for the calls: active = growth percent below 10; inactive = the rest.
Possible outcomes: True (active), False (inactive)

> print(dat)
                                   compound  class.label
1               NC(=O)NC(=O)/C=C/C(=O)OCCCl        False
2  COc1ccc(/C=c2\sc3n(c2=O)C2C(NN=3)N(C)C(=O)N2C)cc1 (stereo not given)        False
3  COc1ccc(Cn2cc(COc3cc(/C=C/C(=O)c4cc(OC)c(OC)c(OC)c4)ccc3OC)nn2)cc1        False
4  NC(=O)c1cccc(N2Cc3ccccc3OC3=C2C(=O)c2c(O)ccc(O)c2C3=O)c1         True
5  O=C(CN1CCN(c2cc3c(cc2F)c(=O)c(C(=O)O)cn3C2CC2)CC1)Nc1ccc(C(=O)/C=C/c2ccccc2)cc1         True

###

- Tested on: T-47D breast
- experimental details: NCI-60 one-dose screen, 48 h
- study conditions: 10 µM unless noted
About 83,000 compounds went through this panel and 20% of them were active in at least one assay; those are over-represented in the sample as a whole. Activity calls are given as the source filed them. The calls were made as follows: active = growth percent below 10; inactive = the rest.
Possible outcomes: y for active, n for inactive

> print(dat)
                                    compound  class.label
 1  C#CCC1(c2ccc(F)c(F)c2)NS(=O)(=O)c2ccccc21 (stereo not given)            n
 2  CCn1cc(C(=O)O)c(=O)c2cc(F)c(N3CCN(S(=O)(=O)c4c(C)cc(C)cc4C)CC3)cc21            n
 3  COC12CC(=O)C(C(C)=O)=C(O)C1(C)c1c(O)c(C)c(O)c(C(C)=O)c1O2 (stereo not given)            n
 4   Cc1cccc(NC(=O)c2sc3nc4c(cc3c2N)CCCC4)c1            n
 5  CCCCNC(=O)NS(=O)(=O)c1ccc(N2N=C(c3ccc(C)cc3C)CC2c2ccc(OC)cc2)cc1 (stereo not given)            n
 6  CC1Cc2c(N(C)C)ncnc2N(C)c2ccc(O)cc21 (stereo not given)            n
 7  CC(C)(C)OC(=O)N1C/C(=C\c2cccs2)C(=O)/C(=C/c2cccs2)C1            n
 8  CN(C)c1ccc(C2CC(c3ccccc3)=NN2/C=C2\SC(=O)NC2=O)cc1 (stereo not given)            n
 9        N#Cc1ccc(NC(=O)c2ccc3cccnc3c2O)cc1            n
10  COc1cc(CNC(=O)CSc2nc3ccccc3c(=O)n2Cc2cc(OC)c(OC)c(OC)c2)cc(OC)c1OC            n
11  C/C(=C\c1csc(C)n1)[C@@H]1C[C@@H]2O[C@]2(C)CCC[C@H](C)[C@H](O)[C@@H](C)C(=O)C(C)(C)[C@@H](O)CC(=O)N1            y
12  O=Nc1c(-c2c(O)[nH]c3ccc([N+](=O)[O-])cc23)[nH]c2ccc(O)cc12            n
13  COc1cc(OC)c(C(=O)/C=C/c2ccc(C(F)(F)F)cc2)c(OC)c1            n
14  O=C1CCC/C=C\C[C@H]2C=CC(=O)/C2=C/C[C@H](C/C=C\CC(F)(F)F)O1            y
15  Cn1c(C(N)=O)cc2c1-c1nc(NC3CCCCC3)ncc1CCC2            n
16  Cc1c(C(=O)NCc2ccccc2)[n+](=O)c2cc(F)ccc2n1[O-]            n
17  COc1ccc(/C=C/C(=O)c2ccc(NC(=O)CN3CCN(c4cc5c(cc4F)c(=O)c(C(=O)O)cn5C4CC4)CC3)cc2)cc1            n
18  CCOP(=O)(CCN1CCN(CCCCCOc2cc3c(cc2OC)C(=O)N2CCC[C@H]2C=N3)CC1)OCC            n
19  CCCCCCOc1ccc(C2(Cl)c3ccccc3N(C)c3ccccc32)cc1            n
20  CCCCC(N)(C(=O)O)C1CCCC1 (stereo not given)            n
